B1: HESX1 (parent)
chain: QKKDCVPLMKPHRPWADTCSSSGK

variants of: B1; experiment: protein stability index of a GFP-peptide fusion (GPS, HEK-293T) (PSI 1-6); higher = more stable; settings: c terminus: a fixed tail appended;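 further: lentivirally expressed fusions sorted by FACS into six bins by GFP to DsRed ratio, PSI derived from sequencing read proportions per bin multiplied by bin number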
List of protein stability index values.
assay-readout: protein stability index

- QKKDCVPIMKPHRPWADTCSSSGK [L8I]: 2.82
- QKKDCVPLMKPHRPWADTMSSSGK [C19M]: 4.19
- QKKDCVCLMKPHRPWADTCSSSGK [P7C]: 2.74
- QKKDCVPLMKPHRPWADTCSSSGV [K24V]: 2.55
- QKKDCVPLMKPHRPWADTCSSNGK [S22N]: 2.89
- QNKDCVPLMKPHRPWADTCSSSGK [K2N]: 3.33
- QKKYCVPLMKPHRPWADTCSSSGK [D4Y]: 2.72
- QKKDCVKLMKPHRPWADTCSSSGK [P7K]: 2.8
- QKKDCVPLMKPHRPWAKTCSSSGK [D17K]: 3.91
- QKKDCVPLMKPARPWADTCSSSGK [H12A]: 4
- QKKDCVPLMKPHRPWADQCSSSGK [T18Q]: 3.36
- QKKDCVPLMKPHRPWIDTCSSSGK [A16I]: 3.34
- QKKDCVPLMKPHIPWADTCSSSGK [R13I]: 3.66
- QKKDCVPLMKPHRPWACTCSSSGK [D17C]: 2.81
- QYKDCVPLMKPHRPWADTCSSSGK [K2Y]: 2.51
- QKKDDVPLMKPHRPWADTCSSSGK [C5D]: 3.57
- QKKDCVPLMKPFRPWADTCSSSGK [H12F]: 3.25
- QKKDCVPLMKPHRQWADTCSSSGK [P14Q]: 3.88
- QKKDCVPLMKPHRPWADTCSSSWK [G23W]: 1.6
- QKKDPVPLMKPHRPWADTCSSSGK [C5P]: 3.17
- QKKDCVPLMKPIRPWADTCSSSGK [H12I]: 3.07
- QKKDCVPLMKPHRPWADTCTSSGK [S20T]: 2.96
- QKKDCVPLMKPHRPWADTLSSSGK [C19L]: 3.13
- QFKDCVPLMKPHRPWADTCSSSGK [K2F]: 3.46
- QKKDCVPLMKPHRPWAWTCSSSGK [D17W]: 2.78
- QKKDCVPLAKPHRPWADTCSSSGK [M9A]: 3.69
- QKKDCVPLMKPHRPWKDTCSSSGK [A16K]: 3.96
- QKKDCVPLMKMHRPWADTCSSSGK [P11M]: 3.83
- QKKDCWPLMKPHRPWADTCSSSGK [V6W]: 3.08
- QKKDCVPLMKPDRPWADTCSSSGK [H12D]: 4.49
- QKKDCVPLMKPHRPWADTCRSSGK [S20R]: 3
- SKKDCVPLMKPHRPWADTCSSSGK [Q1S]: 3.49
- QKKDCVPLMKPHKPWADTCSSSGK [R13K]: 3.5
- QKKDCVPLMKPHFPWADTCSSSGK [R13F]: 3.75
- QKKDCVPLMKPHRPWADTCSESGK [S21E]: 3.86
- QKKDCVPLMKPHRPWADTCSYSGK [S21Y]: 2.32
- QKKDCVPLMKPYRPWADTCSSSGK [H12Y]: 3.29
- QKKDCVPLMKLHRPWADTCSSSGK [P11L]: 2.85
- QKKDCVPLMKPHRPWADTCSSSGA [K24A]: 3.7
- QKKDCYPLMKPHRPWADTCSSSGK [V6Y]: 3.01
- QKKPCVPLMKPHRPWADTCSSSGK [D4P]: 2.86
- QPKDCVPLMKPHRPWADTCSSSGK [K2P]: 3.89
